# System: mouse long-term hematopoietic stem cells
# test-protocol: Reproducibility and concentration dependence test: 1-week culture of sorted Hoxb5-tri-mCherry mouse long-term hematopoietic stem cells, flow cytometry
# Format: cell-based
# experimental-context: Table 4; compound 0.1 μM; day 7 of culture; n=2
observable: mCherry-positive rate (%)
Report as a plain number; the unit % is understood.

Some compounds with recorded mCherry-positive rate:
C[C@@H]1CC[C@H]2[C@@H](C)C(=O)O[C@@H]3O[C@@]4(C)CC[C@@H]1[C@]32O4 [Example 1-34] | 11.7
CC1=CO[C@@H]2O[C@@]3(C)CC[C@H]4[C@H](C)CC[C@@H]1[C@@]24OO3 [Example 1-28] | 12.9
CC(C)O[C@H]1O[C@@H]2O[C@@]3(C)CC[C@H]4[C@H](C)CC[C@@H]([C@H]1C)[C@@]24OO3 [Example 1-19] | 56.3

Result for CC(=O)N[C@@H]1O[C@@H]2O[C@@]3(C)CC[C@H]4[C@H](C)CC[C@@H]([C@H]1C)[C@@]24OO3 [Example 1-10] , tested on mouse long-term hematopoietic stem cells, mCherry-positive rate: 6.5

###

# Tested on: human hematopoietic stem cells (CD34-positive cells)
# test-protocol: Confirmation test with human cells: 1-week culture of cord blood Lineage-negative CD34-positive cells, flow cytometry
# Assay type: cell-based
# experimental-context: compound 0.01 μM, 180 cells before culture, no UM171
observable: Viable cell count (cell)
Report as a plain number; the unit cell is understood.

COCCO[C@H]1O[C@@H]2O[C@@]3(C)CC[C@H]4[C@H](C)CC[C@@H]([C@H]1C)[C@@]24OO3 | 1152
C[C@H]1[C@H](C(N)=O)O[C@@H]2O[C@@]3(C)CC[C@H]4[C@H](C)CC[C@@H]1[C@@]24OO3 | 1301

Lookup result for C[C@H]1[C@H](c2ccco2)O[C@@H]2O[C@@]3(C)CC[C@H]4[C@H](C)CC[C@@H]1[C@@]24OO3 ; measured Viable cell count: 1115

Lookup result for CO[C@H]1O[C@@H]2O[C@@]3(C)CC[C@H]4[C@H](C)CC[C@@H]([C@H]1C)[C@@]24OO3 [Example 1-30, artemether, reference compound] ; measured Viable cell count: 498

###

Listed here: items and their measured mCherry-positive rate.
# Tested on: mouse long-term hematopoietic stem cells
# test-protocol: Reproducibility and concentration dependence test: 1-week culture of sorted Hoxb5-tri-mCherry mouse long-term hematopoietic stem cells, flow cytometry
# Type: cell-based
# experimental-context: Table 3; compound 0.1 μM; day 7 of culture; n=2
Report as a plain number; the unit % is understood.

Some compounds with recorded mCherry-positive rate:
C[C@@H]1CC[C@H]2[C@@H](C)C(=O)O[C@@H]3O[C@@]4(C)CC[C@@H]1[C@]32OO4 [Example 1-33, artemisinin, reference compound] | 49.25
C[C@H]1[C@@H](O)O[C@@H]2O[C@@]3(C)CC[C@H]4[C@H](C)CC[C@@H]1[C@@]24OO3 [Example 1-29, artenimol, reference compound] | 16.9
CO[C@H]1O[C@@H]2O[C@@]3(C)CC[C@H]4[C@H](C)CC[C@@H]([C@H]1C)[C@@]24OO3 [Example 1-30, artemether, reference compound] | 67.2
CCO[C@H]1O[C@@H]2O[C@@]3(C)CC[C@H]4[C@H](C)CC[C@@H]([C@H]1C)[C@@]24OO3 [Example 1-31, artemotil, reference compound] | 57.4

Lookup result for C[C@H]1[C@H](OC(=O)CCC(=O)O)O[C@@H]2O[C@@]3(C)CC[C@H]4[C@H](C)CC[C@@H]1[C@@]24OO3 [Example 1-32, artesunate, reference compound] ; measured mCherry-positive rate: 23.59

###

Listed here: items and their measured KLS-positive rate.
# Tested on: mouse long-term hematopoietic stem cells
# test-protocol: Reproducibility and concentration dependence test: 1-week culture of sorted Hoxb5-tri-mCherry mouse long-term hematopoietic stem cells, flow cytometry
# Type: cell-based
# experimental-context: Table 4; compound 0.3 μM; day 7 of culture; n=2
Report as a plain number; the unit % is understood.

C[C@H]1[C@H](N(C)C)O[C@@H]2O[C@@]3(C)CC[C@H]4[C@H](C)CC[C@@H]1[C@@]24OO3 | 15.8
CS[C@@H]1O[C@@H]2O[C@@]3(C)CC[C@H]4[C@H](C)CC[C@@H]([C@H]1C)[C@@]24OO3 | 18.6
C[C@H]1[C@@H](CN)O[C@@H]2O[C@@]3(C)CC[C@H]4[C@H](C)CC[C@@H]1[C@@]24OO3 | 16.1

Lookup result for CC(=O)OCCO[C@@H]1O[C@@H]2O[C@@]3(C)CC[C@H]4[C@H](C)CC[C@@H]([C@H]1C)[C@@]24OO3 ; measured KLS-positive rate: 75.0

Lookup result for CO[C@@H]1O[C@@H]2O[C@@]3(C)CC[C@H]4[C@H](C)CC[C@@H]([C@H]1C)[C@@]24OO3 ; measured KLS-positive rate: 19.9

Lookup result for C[C@H]1[C@H](N2CCOCC2)O[C@@H]2O[C@@]3(C)CC[C@H]4[C@H](C)CC[C@@H]1[C@@]24OO3 ; measured KLS-positive rate: 14.7

###

# System: mouse long-term hematopoietic stem cells
# test-protocol: Reproducibility and concentration dependence test: 1-week culture of sorted Hoxb5-tri-mCherry mouse long-term hematopoietic stem cells, flow cytometry
# Type: cell-based
# experimental-context: Table 4; compound 0.1 μM; day 7 of culture; n=2
observable: mCherry-positive rate
Record the result as a number with its unit.

Some molecules with recorded mCherry-positive rate:
C[C@H]1[C@@H](C(N)=O)O[C@@H]2O[C@@]3(C)CC[C@H]4[C@H](C)CC[C@@H]1[C@@]24OO3 [Example 1-15] | 7.1%
CC(=O)O[C@@H]1O[C@@H]2O[C@@]3(C)CC[C@H]4[C@H](C)CC[C@@H]([C@H]1C)[C@@]24OO3 [Example 1-14] | 0.2%
C[C@H]1[C@H](CN)O[C@@H]2O[C@@]3(C)CC[C@H]4[C@H](C)CC[C@@H]1[C@@]24OO3 [Example 1-18] | 23.5%
C[C@H]1[C@@H](c2ccccc2)O[C@@H]2O[C@@]3(C)CC[C@H]4[C@H](C)CC[C@@H]1[C@@]24OO3 [Example 1-2] | 59.9%

Lookup result for CCO[C@H]1O[C@@H]2O[C@@]3(C)CC[C@H]4[C@H](C)CC[C@@H]([C@H]1C)[C@@]24OO3 [Example 1-31, artemotil, reference compound] ; measured mCherry-positive rate: 84.9%

Lookup result for C[C@H]1[C@H](C(N)=O)O[C@@H]2O[C@@]3(C)CC[C@H]4[C@H](C)CC[C@@H]1[C@@]24OO3 [Example 1-16] ; measured mCherry-positive rate: 6.8%

###

Listed here: items and their measured mCherry-positive rate.
# System: mouse long-term hematopoietic stem cells
# test-protocol: Reproducibility and concentration dependence test: 1-week culture of sorted Hoxb5-tri-mCherry mouse long-term hematopoietic stem cells, flow cytometry
# Format: cell-based
# experimental-context: Table 4; compound 0.3 μM; day 7 of culture; n=2

C[C@H]1[C@@H](C(N)=O)O[C@@H]2O[C@@]3(C)CC[C@H]4[C@H](C)CC[C@@H]1[C@@]24OO3 | 13.3%
C[C@H]1[C@H](OC(=O)CCC(=O)O)O[C@@H]2O[C@@]3(C)CC[C@H]4[C@H](C)CC[C@@H]1[C@@]24OO3 [Example 1-32, artesunate, reference compound] | 6.0%
C[C@H]1[C@H](c2ccco2)O[C@@H]2O[C@@]3(C)CC[C@H]4[C@H](C)CC[C@@H]1[C@@]24OO3 | 62.2%

# evaluate next
Lookup result for C[C@H]1[C@@H](OCC(F)(F)F)O[C@@H]2O[C@@]3(C)CC[C@H]4[C@H](C)CC[C@@H]1[C@@]24OO3 ; measured mCherry-positive rate: 100.0%

###

# System: mouse long-term hematopoietic stem cells
# test-protocol: Reproducibility and concentration dependence test: 1-week culture of sorted Hoxb5-tri-mCherry mouse long-term hematopoietic stem cells, flow cytometry
# Assay type: cell-based
# experimental-context: Table 4; compound 0.3 μM; day 7 of culture; n=2
Label key: 1 (yes) means KLS-positive rate under 20%; 0 (no) means KLS-positive rate of 20% or more.

C[C@H]1[C@@H](Oc2ccccc2)O[C@@H]2O[C@@]3(C)CC[C@H]4[C@H](C)CC[C@@H]1[C@@]24OO3 [Example 1-21] | 1 (yes)

# strict comparison: is reported KLS-positive rate < 20%? input = CC(=O)N[C@@H]1O[C@@H]2O[C@@]3(C)CC[C@H]4[C@H](C)CC[C@@H]([C@H]1C)[C@@]24OO3 [Example 1-10]
0 (no)

# strict comparison: is reported KLS-positive rate < 20%? input = C[C@H]1[C@H](OC(=O)CCC(=O)O)O[C@@H]2O[C@@]3(C)CC[C@H]4[C@H](C)CC[C@@H]1[C@@]24OO3 [Example 1-32, artesunate, reference compound]
1 (yes)

# strict comparison: is reported KLS-positive rate < 20%? input = C[C@H]1[C@H](S(C)(=O)=O)O[C@@H]2O[C@@]3(C)CC[C@H]4[C@H](C)CC[C@@H]1[C@@]24OO3 [Example 1-5]
0 (no)

src = patent US20230094952A1
